Target: EGFR(L858R/T790M) (Homo sapiens, UniProt P00533, L858R/T790M)
Construct: purchased from Carna (GST-a.a. 669-1210)
Sequence (P00533 669-1210 T790M/L858R): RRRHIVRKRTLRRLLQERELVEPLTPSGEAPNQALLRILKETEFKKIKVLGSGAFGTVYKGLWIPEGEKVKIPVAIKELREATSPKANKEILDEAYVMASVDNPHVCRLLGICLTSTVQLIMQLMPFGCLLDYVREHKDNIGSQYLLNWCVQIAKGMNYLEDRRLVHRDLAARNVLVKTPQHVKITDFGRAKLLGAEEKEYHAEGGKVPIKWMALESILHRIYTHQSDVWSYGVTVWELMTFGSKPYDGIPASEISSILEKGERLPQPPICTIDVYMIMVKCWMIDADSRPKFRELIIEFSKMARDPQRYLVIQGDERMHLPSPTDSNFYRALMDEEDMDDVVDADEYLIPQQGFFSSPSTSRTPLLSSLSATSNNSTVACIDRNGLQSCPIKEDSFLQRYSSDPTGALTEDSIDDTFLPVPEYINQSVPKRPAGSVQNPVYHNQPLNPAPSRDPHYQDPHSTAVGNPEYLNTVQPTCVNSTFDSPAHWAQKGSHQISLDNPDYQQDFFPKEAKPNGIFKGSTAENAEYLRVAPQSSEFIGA
Assay: EGFR biochemical assay (HTRF), IC50 determinations
Settings: EGFR (L858R/T790M) with 90 min pre-incubation; read-out: IC50 (μM) Column B
readout_label: IC50

# IC50 lookup, item Cc1cccc2nc(NC(=O)c3ccnnc3)n([C@@H]3CCCCN(C(=O)C#CCN(C)C)C3)c12 [Example 17-87]
< 0.001 µM

# IC50 lookup, item C=CC(=O)N1CCCC[C@@H](n2c(NC(=O)c3cccc(C(F)(F)F)c3)nc3cccc(C)c32)C1 (single isomer, unassigned) [Example 21-4]
< 0.001 µM

# IC50 lookup, item C=CC(=O)N1CCCC[C@@H](n2c(NC(=O)c3cc(C)nc(C)c3)nc3cc(CN4CC[C@H](F)C4)cc(C)c32)C1 [Example 17-158]
< 0.001 µM

# IC50 lookup, item C=CC(=O)N1CCCC(n2c(NC(=O)c3cccc(C(F)(F)F)c3)nc3c2CCN(C(=O)OC)C3)C1 (stereo not shown) [Example 17-167]
0.128 µM

# IC50 lookup, item CN(C)C/C=C/C(=O)N1CCCCC(n2c(NC(=O)c3cccc(C(F)(F)F)c3)nc3cc(CO)cc(C#N)c32)C1 (stereo not shown) [Example 17-116]
< 0.001 µM

# IC50 lookup, item Cc1cc(C(=O)Nc2nc3cccc(Cl)c3n2[C@@H]2CCCCN(C(=O)/C=C/C(C)(C)N(C)C)C2)ccn1 [Example 3-18]
0.108 µM

# IC50 lookup, item C=CC(=O)N1CCCC[C@@H](n2c(NC(=O)c3cccc(C(F)(F)F)c3)nc3cccc(C(F)(F)F)c32)C1 [Example 17-12]
0.003 µM

# IC50 lookup, item C=CC(=O)N1CCCC[C@@H](n2c(NC(=O)c3cccc(C(F)(F)F)c3)nc3cccc(C(=O)OC)c32)C1 [Example 17-96]
0.011 µM

# IC50 lookup, item O=C(Nc1nc2cccc(Cl)c2n1[C@@H]1CCCCN(C(=O)/C=C/CN2CCCC2)C1)c1ccnnc1 [Example 3-8]
< 0.001 µM

# IC50 lookup, item COc1cncc(C(=O)Nc2nc3cccc(C)c3n2[C@@H]2CCCCN(C(=O)/C=C/CN(C)C)C2)c1 [Example 17-79]
< 0.001 µM

* * *

Molecular target: HEKn (EGFR WT) (Homo sapiens, UniProt P00533)
Sequence (P00533 25-1210): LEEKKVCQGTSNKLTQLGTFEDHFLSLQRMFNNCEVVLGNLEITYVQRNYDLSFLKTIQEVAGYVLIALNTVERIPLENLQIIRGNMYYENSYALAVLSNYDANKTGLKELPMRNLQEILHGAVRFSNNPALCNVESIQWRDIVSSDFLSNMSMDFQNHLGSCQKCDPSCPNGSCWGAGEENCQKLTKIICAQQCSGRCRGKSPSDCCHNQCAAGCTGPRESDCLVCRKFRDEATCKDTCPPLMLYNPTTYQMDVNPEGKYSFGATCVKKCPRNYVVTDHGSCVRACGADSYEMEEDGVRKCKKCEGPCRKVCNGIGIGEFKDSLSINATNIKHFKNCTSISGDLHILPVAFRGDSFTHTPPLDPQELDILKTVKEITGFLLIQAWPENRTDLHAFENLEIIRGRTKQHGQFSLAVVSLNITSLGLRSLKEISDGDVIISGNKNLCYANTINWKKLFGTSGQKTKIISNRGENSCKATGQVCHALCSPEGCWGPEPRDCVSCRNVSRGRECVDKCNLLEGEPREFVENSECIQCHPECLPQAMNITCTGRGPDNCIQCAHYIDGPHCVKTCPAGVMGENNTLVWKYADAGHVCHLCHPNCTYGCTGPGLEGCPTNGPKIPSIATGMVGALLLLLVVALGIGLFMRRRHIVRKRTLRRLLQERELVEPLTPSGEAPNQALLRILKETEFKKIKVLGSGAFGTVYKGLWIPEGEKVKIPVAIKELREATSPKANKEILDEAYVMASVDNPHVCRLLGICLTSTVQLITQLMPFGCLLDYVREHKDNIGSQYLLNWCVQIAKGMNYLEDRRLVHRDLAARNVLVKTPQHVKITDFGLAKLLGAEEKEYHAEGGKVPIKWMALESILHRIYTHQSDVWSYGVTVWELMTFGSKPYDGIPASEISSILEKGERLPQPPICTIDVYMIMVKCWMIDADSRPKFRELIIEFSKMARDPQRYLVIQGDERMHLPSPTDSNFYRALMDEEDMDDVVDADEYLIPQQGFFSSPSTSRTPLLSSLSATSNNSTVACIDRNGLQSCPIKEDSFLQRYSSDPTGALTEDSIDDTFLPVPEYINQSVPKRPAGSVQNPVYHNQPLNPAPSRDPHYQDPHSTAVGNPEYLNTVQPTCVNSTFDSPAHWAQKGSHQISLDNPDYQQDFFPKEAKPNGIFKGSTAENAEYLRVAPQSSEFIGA
Test: EGFR target modulation in HEKn (EGFR-WT) cell line (phospho-EGFR Y1173 ELISA)
Conditions: value outside parentheses
pIC50: −log10 of the molar value.
readout_label: pIC50

Observe how each entry below is paired with its result.
Record "Cc1cc(C(=O)Nc2nc3cccc(Cl)c3n2[C@@H]2CCCCN(C(=O)/C=C/CN(C)C)C2)cc(C)n1" : what is its pIC50 with HEKn (EGFR WT) (Homo sapiens, UniProt P00533)?
5.82

Record "C=CC(=O)N1CCCC[C@@H](n2c(NC(=O)c3ccnc(C)c3)nc3cc(CN4CC[C@H](F)C4)cc(C)c32)C1" : what is its pIC50 with HEKn (EGFR WT) (Homo sapiens, UniProt P00533)?
7.10

[1] CN(C)C/C=C/C(=O)N1CCCC[C@@H](n2c(NC(=O)c3ccnnc3)nc3cccc(Cl)c32)C1
[2] C=CC(=O)N1CCCC[C@@H](n2c(NC(=O)c3cc(C)nc(C)c3)nc3cc(CN4CC[C@H](OC)C4)cc(C)c32)C1
[3] CC(C)Oc1cccc2nc(NC(=O)c3ccnnc3)n([C@@H]3CCCCN(C(=O)/C=C/CN(C)C)C3)c12
Put these in order: smallest pIC50 first, largest last. As an answer, provide the labels arranged in the order called for.
3, 1, 2

[I] O=C(Nc1nc2cccc(Cl)c2n1[C@@H]1CCCCN(C(=O)/C=C/CN2CCCC2)C1)c1ccnnc1
[II] Cc1cc(C(=O)Nc2nc3cccc(Cl)c3n2[C@@H]2CCCCN(C(=O)/C=C/CN3CC(F)C3)C2)ccn1
[III] C=CC(=O)N1CCCC[C@@H](n2c(NC(=O)c3cc(C)nc(C)c3)nc3cc(CN4CC[C@@H](OC)C4)cc(C)c32)C1
[IV] COc1ccc2nc(NC(=O)c3ccnnc3)n([C@@H]3CCCCN(C(=O)/C=C/CN(C)C)C3)c2c1Cl
Rank the 4 compounds: largest pIC50 first, smallest last. As an answer, provide the labels arranged in the order called for.
I, III, II, IV
(I: 6.71, III: 6.51, II: 6.04, IV: 5.63)

* * *

Biological target: H3255 (EGFR L858R) (Homo sapiens, UniProt P00533, L858R)
Test: EGFR target modulation in H3255 cell line (phospho-EGFR Y1173 ELISA)
pIC50: −log10 of the molar value.
readout_label: pIC50

Observe how each entry below is paired with its result.
# pIC50 lookup, item C=CC(=O)N1CCC[C@@H](n2c(NC(=O)c3ccccc3)nc3cccc(C)c32)C1 [Example 17-108]
7.36

# pIC50 lookup, item Cc1cccc2nc(NC(=O)c3ccnc(-c4ccccc4)c3)n([C@@H]3CCCCN(C(=O)/C=C/CN(C)C)C3)c12 [Example 17-76]
9.00

# pIC50 lookup, item C=CC(=O)N1CCCC[C@@H](n2c(NC(=O)c3ccnc(C)c3)nc3ccc(OCCN4CCCC4)c(Cl)c32)C1 [Example 17-193]
8.70

# pIC50 lookup, item Cc1cc(C(=O)Nc2nc3cccc(Cl)c3n2[C@@H]2CCCCN(C(=O)/C=C/CN(C)C(=O)OC(C)(C)C)C2)ccn1 [Example 17-184]
5.32

# pIC50 lookup, item C=CC(=O)N1CCCC[C@@H](n2c(NC(=O)c3ccccc3)nc3cc(CN4CCCC4)cc(C)c32)C1 [Example 17-111]
8.10

# pIC50 lookup, item Cc1ccc(C(=O)Nc2nc3cccc(C)c3n2C2CCCCN(C(=O)/C=C/CN(C)C)C2)cn1 (stereo not drawn) [Example 17-47]
8.40

[1] Cc1cccc2nc(NC(=O)c3ccc(F)cc3)n(C3CCCCN(C(=O)/C=C/CN(C)C)C3)c12 (stereo not drawn) [Example 17-26]
[2] Cc1cc(C(=O)Nc2nc3cccc(Cl)c3n2[C@@H]2CCCCN(C(=O)/C=C/CN3CCC(F)(F)C3)C2)ccn1 [Example 3-3]
[3] Cc1cncc(C(=O)Nc2nc3cccc(C)c3n2[C@@H]2CCCCN(C(=O)/C=C/CN(C)C)C2)c1 [Example 17-68]
Rank the 3 compounds: largest pIC50 first, smallest last. As an answer, provide the labels arranged in the order called for.
3, 1, 2
(3: 8.10, 1: 7.82, 2: 6.49)

* * *

Biological target: EGFR(L858R/T790M) (Homo sapiens, UniProt P00533, L858R/T790M)
Construct: purchased from Carna (GST-a.a. 669-1210)
Experiment: EGFR biochemical assay (HTRF), IC50 determinations
Details: EGFR (L858R/T790M) with 90 min pre-incubation; read-out: IC50 (μM) Column B
readout_label: IC50 (µM)

[I] Cc1ncc(C(=O)Nc2nc3cccc(C)c3n2C2CCCCN(C(=O)/C=C/CN(C)C)C2)s1 (stereo not shown) [Example 17-64]
[II] Cc1noc(-c2cccc3nc(NC(=O)c4ccccc4)n(C4COCCN(C(=O)/C=C/CN(C)C)C4)c23)n1 (stereo not shown)
[III] COc1ccc2nc(NC(=O)c3ccnnc3)n([C@@H]3CCCCN(C(=O)/C=C/CN(C)C)C3)c2c1Cl
Order the above compounds by increasing IC50. As an answer, provide the labels arranged in the order called for.
I, III, II

* * *

Biological target: human EGFR L858R (NIH/3T3 cells) (Homo sapiens, UniProt P00533, L858R)
Sequence (P00533 25-1210 L858R): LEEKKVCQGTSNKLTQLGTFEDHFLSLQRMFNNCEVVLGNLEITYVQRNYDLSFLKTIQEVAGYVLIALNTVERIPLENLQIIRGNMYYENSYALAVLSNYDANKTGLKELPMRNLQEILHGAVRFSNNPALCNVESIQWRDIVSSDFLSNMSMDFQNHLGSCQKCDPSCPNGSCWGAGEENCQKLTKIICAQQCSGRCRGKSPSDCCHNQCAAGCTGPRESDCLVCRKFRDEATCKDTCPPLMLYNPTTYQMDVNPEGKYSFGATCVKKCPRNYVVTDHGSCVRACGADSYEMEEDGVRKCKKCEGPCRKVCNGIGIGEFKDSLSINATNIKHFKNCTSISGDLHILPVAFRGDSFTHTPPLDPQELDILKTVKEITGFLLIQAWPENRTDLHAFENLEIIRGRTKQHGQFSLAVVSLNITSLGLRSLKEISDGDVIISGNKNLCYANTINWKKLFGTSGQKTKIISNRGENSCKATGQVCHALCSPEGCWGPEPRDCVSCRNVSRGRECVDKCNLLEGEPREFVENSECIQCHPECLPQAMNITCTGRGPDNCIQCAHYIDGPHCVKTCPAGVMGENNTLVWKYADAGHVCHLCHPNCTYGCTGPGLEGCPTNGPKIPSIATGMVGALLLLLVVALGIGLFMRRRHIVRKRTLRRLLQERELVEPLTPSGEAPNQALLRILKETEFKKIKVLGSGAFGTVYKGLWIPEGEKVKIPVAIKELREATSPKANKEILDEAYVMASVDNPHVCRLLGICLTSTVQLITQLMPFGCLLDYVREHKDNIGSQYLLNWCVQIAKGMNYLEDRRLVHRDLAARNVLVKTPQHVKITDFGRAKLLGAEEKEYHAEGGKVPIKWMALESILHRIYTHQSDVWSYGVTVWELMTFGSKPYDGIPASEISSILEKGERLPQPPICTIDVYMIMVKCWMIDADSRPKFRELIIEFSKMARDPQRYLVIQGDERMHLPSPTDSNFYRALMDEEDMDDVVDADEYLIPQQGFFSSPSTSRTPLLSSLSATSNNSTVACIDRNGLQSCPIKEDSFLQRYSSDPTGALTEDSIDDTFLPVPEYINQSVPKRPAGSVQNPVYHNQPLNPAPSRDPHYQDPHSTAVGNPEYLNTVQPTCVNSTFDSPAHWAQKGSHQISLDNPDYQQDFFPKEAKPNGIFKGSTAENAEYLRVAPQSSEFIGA
Assay: EGFR target modulation in engineered NIH/3T3 cell lines (phospho-EGFR Y1068 AlphaLISA), EGFR L858R
Assay type: cell-based
Details: engineered NIH/3T3 cells, read-out: NIH3T3 IC50 (μM) EGFR (L858R)
readout_label: IC50 (µM)

Observe how each entry below is paired with its result.
# IC50 lookup, item Cc1cccc(C(=O)Nc2nc3cccc(C)c3n2C2CCCCN(C(=O)/C=C/CN(C)C)C2)c1 (stereo not shown)
0.012

# IC50 lookup, item Cc1cccc2nc(NC(=O)c3cnco3)n(C3CCCCN(C(=O)/C=C/CN(C)C)C3)c12 (stereo not shown)
0.008

# IC50 lookup, item Cc1cccc2nc(NC(=O)c3ccncn3)n(C3CCCCN(C(=O)/C=C/CN(C)C)C3)c12 (stereo not shown)
0.032

[P] COc1cncc(C(=O)Nc2nc3cccc(C)c3n2[C@@H]2CCCCN(C(=O)/C=C/CN(C)C)C2)c1
[Q] Cc1cccc2nc(NC(=O)c3cncc(-n4cccc4)c3)n([C@@H]3CCCCN(C(=O)/C=C/CN(C)C)C3)c12
Param pair: P , Q . Output: the one whose IC50 is numerically greater. State your choice using its label.
P

Data origin, for the record: patent US9440957B2
